protocol_details: Half life in human plasma
Format: ADME, cell-free
assay_endpoint: half-life (min)
One number for each entry, in min.

mol: CCN(CC)Cc1cccc(C(=O)OCCOCn2cnc3c(=O)[nH]c(N)nc32)c1
display_unit: min
observed_value: 7.5
--
mol: Nc1ccc(S(=O)(=O)N(COC(=O)c2ccccc2)c2cncs2)cc1
display_unit: min
observed_value: 0.12
--
mol: CC1(C)O[C@@H]2C[C@H]3[C@@H]4C[C@H](F)C5=CC(=O)C=C[C@]5(C)[C@@]4(F)[C@@H](O)C[C@]3(C)[C@]2(S[C@H]2CCOC2=O)O1
display_unit: min
observed_value: 4
--
mol: C[C@H](NC(=O)[C@H](N)CCC(=O)OCc1ccc([N+](=O)[O-])cc1)C(=O)O
display_unit: min
observed_value: 6.8
--
mol: Cc1nccn1CCOC(=O)[C@@H](C)c1ccc(-c2ccccc2)c(F)c1
display_unit: min
observed_value: 355

Would you be so kind as to report half-life for each listed record?
1. CCCCC(=O)OCOC(=O)Cc1c(C)n(C(=O)c2ccc(Cl)cc2)c2ccc(OC)cc12
2. CC(C)C[C@H]1NC(=O)[C@H](Cc2ccccc2)NC(=O)CNC(=O)[C@@H](C)NC(=O)[C@H](Cc2ccc(O)cc2)NC(=O)/C=C\c2ccccc2OCOC1=O

[124, 264]

* * *

protocol_details: Half life in human plasma
Format: ADME, cell-free
Residues, ends and D or L forms follow the SMILES beside them.
assay_endpoint: half-life (min)
Numbers only, in min.

Would you be so kind as to report half-life for each listed record?
1. O=C(OC[C@H]1O[C@@H](n2cc(F)c(=O)[nH]c2=O)C[C@@H]1O)[C@@H]1CCCN1
2. CCCCCCCCCCOC(=O)[C@H](Cc1ccccc1)NC(=O)CN.Cl
3. CCOC(=O)CN(COC(=O)[C@@H](C)c1ccc2cc(OC)ccc2c1)C(=O)c1ccccc1
4. COC(=O)[C@H](Cc1ccc(OC(C)=O)c(OC(C)=O)c1)NC(=O)CCCC[C@@H]1CCSS1
5. CCCN(CCC)S(=O)(=O)c1ccc(C(=O)OCN(CC(=O)OCC)C(=O)c2ccccc2)cc1
6. Cc1ncc([N+](=O)[O-])n1CCOC(=O)CCCC(=O)OCCn1c([N+](=O)[O-])cnc1C
7. CC(C)C[C@H](NC(=O)[C@H](Cc1ccccc1)NC(=O)CNC(=O)CN1C(=O)[C@H](Cc2ccc(O)cc2)NC12CCC(C)CC2)C(=O)O (stereo partly drawn)
8. CC(=O)OCOC(=O)N(C)/N=N/c1ccc(Br)cc1

1: 5.7; 2: 61.5; 3: 78; 4: 52.8; 5: 46; 6: 36.6; 7: 1130; 8: 17

Would you be so kind as to report half-life for each listed record?
1. CCN(CC)C(=O)COC(=O)[C@H](C)c1ccc(CC(C)C)cc1
2. C[C@]12CCC(=O)C=C1CC[C@@H]1[C@@H]2[C@@H](O)C[C@@]2(C)[C@H]1CC[C@]2(O)C(=O)OCCl
3. NCC(=O)N[C@@H](Cc1ccccc1)C(=O)O (H-Gly-Phe-OH)
4. CS(=O)(=O)N(COC(=O)c1ccccc1)c1ccc([N+](=O)[O-])cc1Oc1ccccc1

1: 1; 2: 132; 3: 71.5; 4: 1.93

// provenance: ChEMBL document CHEMBL1821652
